# System: surinam grass
# test: Test B pre/postemergence surinam grass
# Assay type: in vivo, Brachiaria decumbens
# stated.conditions: Rate 250 g/ha, Postemergence; scale of 0 to 10 where 0 is no effect and 10 is complete control
recorded.metric: Plant response rating, B. signalgrass
Numbers only.

Example entries and their recorded answers appear below.
[[record]]
chemical_string = "Cc1ccccc1-n1c(=O)on(C(=O)N(c2ccc(Oc3ccccc3)cc2)C(C)C)c1=O"
value_reported = 0

[[record]]
chemical_string = "COCCOCn1c(=O)on(C(=O)N(c2ccc(Cl)cc2)C(C)C)c1=O"
value_reported = 0

[[record]]
chemical_string = "CC(C)N(C(=O)n1oc(=O)n(C[Si](C)(C)C)c1=O)c1ccc(Cl)cc1"
value_reported = 0

[[record]]
chemical_string = "C=CCCCn1c(=O)on(C(=O)N(c2ccccc2)C(C)C)c1=O"
value_reported = 0

[[record]]
chemical_string = "CC(=O)OCCCCn1c(=O)on(C(=O)N(c2ccc(Cl)cc2)C(C)C)c1=O"
value_reported = 0


Your task in this section: give Plant response rating, B. signalgrass for each listed record.
1. CCC(CC)n1c(=O)on(C(=O)N(c2ccc(F)cc2)C(C)C)c1=O
2. CCC(=O)Cn1c(=O)on(C(=O)N(c2ccc(F)cc2F)C(C)C)c1=O
3. CC(C)N(C(=O)n1oc(=O)n(Cc2ccccn2)c1=O)c1ccc(F)cc1
4. CCC=CCn1c(=O)on(C(=O)N(c2ccc(F)cc2F)C(C)C)c1=O

Solution:
1: 1; 2: 2; 3: 0; 4: 2

====

# Test system: surinam grass
# test: Test B pre/postemergence surinam grass
# Assay type: in vivo, Brachiaria decumbens
# stated.conditions: Postemergence, Rate 500 g/ha; scale 0 to 10, 0 is no effect, 10 is complete control
recorded.metric: Plant response rating, B. signalgrass
Numbers only.

Recorded Plant response rating, B. signalgrass, per entry:
[[record]]
chemical_string = "CC(=O)OCCCCn1c(=O)on(C(=O)N(c2ccc(F)cc2F)C(C)C)c1=O"
recorded_metric = "Plant response rating, B. signalgrass"
value_reported = 0

[[record]]
chemical_string = "CC(C)N(C(=O)n1oc(=O)n(CCCNC(=O)CCl)c1=O)c1ccccc1"
recorded_metric = "Plant response rating, B. signalgrass"
value_reported = 0

[[record]]
chemical_string = "CC(C)N(C(=O)n1oc(=O)n(CCC2OCCCO2)c1=O)c1ccc(Cl)cc1"
recorded_metric = "Plant response rating, B. signalgrass"
value_reported = 0

[[record]]
chemical_string = "CCC=CCn1c(=O)on(C(=O)N(c2ccc(F)cc2F)C(C)C)c1=O"
recorded_metric = "Plant response rating, B. signalgrass"
value_reported = 7


We next turn to a different compound, shown below.
# compound CC(C)N(C(=O)n1oc(=O)n(CC2CC2)c1=O)c1ccc(F)cc1F ; its Plant response rating, B. signalgrass = 7

====

# Tested on: cocklebur
# test: Test B pre/postemergence cocklebur
# Assay type: in vivo, Xanthium strumarium
# stated.conditions: Preemergence, Rate 500 g/ha; scale of 0 to 10 where 0 is no effect and 10 is complete control
recorded.metric: Cocklebur plant response rating
Answers are plain numbers.

Reference set (3 entries):
[[record]]
molecule = "CC(C)N(C(=O)n1oc(=O)n(CCCF)c1=O)c1ccc(F)cc1F"
target_system = "cocklebur"
value_reported = 2

[[record]]
molecule = "CC(C)N(C(=O)n1oc(=O)n(C)c1=O)c1ccc(F)cc1F"
target_system = "cocklebur"
value_reported = 0

[[record]]
molecule = "CC(C)N(C(=O)n1oc(=O)n(CC2CC2)c1=O)c1ccc(F)cc1F"
target_system = "cocklebur"
value_reported = 5


The molecule listed as COCC(C)n1c(=O)on(C(=O)N(c2ccc(F)cc2F)C(C)C)c1=O (stereo not shown) has a reported Cocklebur plant response rating of 0
